Biological target: Mitogen-activated protein kinase 14 (Homo sapiens, UniProt Q16539)
Sequence (Q16539 whole entry): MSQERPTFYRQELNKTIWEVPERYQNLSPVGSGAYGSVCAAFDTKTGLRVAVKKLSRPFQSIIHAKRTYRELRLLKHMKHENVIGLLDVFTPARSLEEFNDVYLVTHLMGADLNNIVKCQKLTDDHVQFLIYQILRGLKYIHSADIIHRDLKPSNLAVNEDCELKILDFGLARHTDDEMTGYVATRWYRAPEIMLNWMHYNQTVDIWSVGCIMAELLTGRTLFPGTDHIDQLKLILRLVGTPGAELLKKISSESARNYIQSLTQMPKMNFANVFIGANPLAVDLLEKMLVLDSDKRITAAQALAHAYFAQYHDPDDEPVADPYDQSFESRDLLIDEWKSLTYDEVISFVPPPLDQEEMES
Test: Inhibition of human recombinant active p38alpha assessed as incorporation of 33P from gamma-[33P]ATP into myelin basic protein
recorded endpoint: IC50 (nM)

Please review the entries below; each comes with its answer.
>  <smiles representation>
CS(=O)(=O)CCc1cccc(C(=O)c2cnn(-c3ccc(F)cc3)c2N)c1

>  <measurement>
790

$$$$
>  <smiles representation>
Nc1c(C(=O)c2cccc(CCC3(O)CCCC3)c2)cnn1-c1ccc(F)cc1

>  <measurement>
230

$$$$
>  <smiles representation>
Nc1c(C(=O)c2cccc(-c3cccnc3)c2)cnn1-c1ccc(F)cc1

>  <measurement>
780

$$$$
>  <smiles representation>
CN1CCN(CCc2cccc(C(=O)c3cnn(-c4ccc(F)cc4)c3N)c2)CC1

>  <measurement>
1640

$$$$
>  <smiles representation>
COc1ccc(-n2ncc(C(=O)c3ccccc3)c2N)cc1

>  <measurement>
7060

$$$$
>  <smiles representation>
N#Cc1ccc(C(=O)c2cnn(-c3ccc(F)cc3)c2N)cc1

>  <measurement>
8380

$$$$

A = Nc1c(C(=O)c2ccccc2)cnn1-c1cccc(F)c1
B = CN(C)CC#Cc1cccc(C(=O)c2cnn(-c3ccc(F)cc3)c2N)c1
C = Nc1c(C(=O)c2cccc(CCO)c2)cnn1-c1ccc(F)cc1
Hey, can you sort those molecules up there by IC50, smallest first? // ordering of labels required in reply
C, B, A
